Hello, the source for this data is patent US20200283478A1, in case you need it.

Parameter: ELISA. Scope: all listed entries.
# system-name: T1, PCSK9Δhelix (human, Chemically biotinylated in the phage ELISAs; the site is not given.)
# T1 construct: construct M1-Q692 with engineered TEV site, cleaved by TEV; also called His-PCSK9Δhelix; open groove PCSK9Δhelix
# T1 sequence (prodomain, as listed by the source mutant limits assumed, chain 1 of 2): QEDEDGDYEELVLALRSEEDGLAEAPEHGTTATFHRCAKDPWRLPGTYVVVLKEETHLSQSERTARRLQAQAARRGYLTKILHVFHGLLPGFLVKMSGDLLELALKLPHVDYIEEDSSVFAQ
# T1 sequence (chain, as listed by the source mutant limits assumed, chain 2 of 2): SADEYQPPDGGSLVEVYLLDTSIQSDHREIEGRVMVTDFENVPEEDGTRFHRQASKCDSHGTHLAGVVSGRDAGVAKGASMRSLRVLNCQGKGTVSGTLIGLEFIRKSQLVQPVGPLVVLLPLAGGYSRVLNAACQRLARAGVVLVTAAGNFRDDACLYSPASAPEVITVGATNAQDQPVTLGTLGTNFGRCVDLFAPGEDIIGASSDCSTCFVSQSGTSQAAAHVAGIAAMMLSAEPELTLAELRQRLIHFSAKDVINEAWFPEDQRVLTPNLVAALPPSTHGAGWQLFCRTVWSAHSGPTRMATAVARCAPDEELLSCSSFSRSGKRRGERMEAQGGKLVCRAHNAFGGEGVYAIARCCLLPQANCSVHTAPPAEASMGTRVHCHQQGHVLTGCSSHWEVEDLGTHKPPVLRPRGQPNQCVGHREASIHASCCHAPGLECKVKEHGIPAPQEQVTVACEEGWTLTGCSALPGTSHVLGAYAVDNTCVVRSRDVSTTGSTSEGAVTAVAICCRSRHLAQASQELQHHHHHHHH
# assay-protocol: phage spot ELISA;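 also: phage clones bound to PCSK9 or PCSK9Δhelix by ELISA, noise being the same phage on NeutrAvidin, positive when signal above 0.4 and signal:noise above 2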
measured-endpoint: ELISA

>>> reported_value("TAFTSWEEYLDWVGSGEHQFYSYRGVDVYR [SEQ ID NO 324]")
2.66
>>> reported_value("TAFTSWEEYLDWVGSGNCWSSLRGICENLG [SEQ ID NO 307]")
2.91
>>> reported_value("TAFTSWEEYLDWVGSGPHSYWLDRVQ [SEQ ID NO 332]")
2.68
>>> reported_value("TAFTSWEEYLDWVGSGCPFYDWRCSDFS [SEQ ID NO 328]")
2.78
>>> reported_value("TAFTSWEEYLDWVGSGSCSWNVERIRGCSV [SEQ ID NO 311]")
2.83
>>> reported_value("TAFTSWEEYLDWVGSGKNNYAYLINMPRAPGI [SEQ ID NO 325]")
2.54
>>> reported_value("TAFTSWEEYLDWVGSGKLWNLGRV [SEQ ID NO 306]")
2.62
